Target: Src (Homo sapiens (Human))
Assay: Src kinase inhibition
Type: biochemical
Set-up: concentration or dose not given beside the values
Reported Property: Src % Inhibition (%)
# output: bare number, implied unit %

| Molecule | Reported Property | Data Value |
| --- | --- | --- |
| Nc1ncnc2c1c(Cc1c[nH]c3ccccc13)nn2CC1(C(F)(F)F)CC1 | Src % Inhibition | 96.00 |
| Nc1ncnc2c1c(Oc1cccc(Cl)c1)nn2CC1CCNCC1(F)F (centres unmarked) | Src % Inhibition | 87.87 |
| Nc1ncnc2c1c(Sc1cccc(Cl)c1)nn2CC1CCNCC1 | Src % Inhibition | 102.82 |

Q: Dear colleague, I am looking for the recorded Src % Inhibition of the following molecule: `Nc1ncnc2c1c(Sc1cccc(Cl)c1)cn2CC1CCNCC1`
Ans: 97.49

Q: Find the recorded Src % Inhibition belonging to `Nc1ncnc2c1c(Oc1cccc(Cl)c1)nn2CC1CNC1` and report it.
Ans: 91.81

* * *

Target: TgCDPK1 (Toxoplasma gondii, UniProt Q9BJF5)
Sequence (Q9BJF5 1-507): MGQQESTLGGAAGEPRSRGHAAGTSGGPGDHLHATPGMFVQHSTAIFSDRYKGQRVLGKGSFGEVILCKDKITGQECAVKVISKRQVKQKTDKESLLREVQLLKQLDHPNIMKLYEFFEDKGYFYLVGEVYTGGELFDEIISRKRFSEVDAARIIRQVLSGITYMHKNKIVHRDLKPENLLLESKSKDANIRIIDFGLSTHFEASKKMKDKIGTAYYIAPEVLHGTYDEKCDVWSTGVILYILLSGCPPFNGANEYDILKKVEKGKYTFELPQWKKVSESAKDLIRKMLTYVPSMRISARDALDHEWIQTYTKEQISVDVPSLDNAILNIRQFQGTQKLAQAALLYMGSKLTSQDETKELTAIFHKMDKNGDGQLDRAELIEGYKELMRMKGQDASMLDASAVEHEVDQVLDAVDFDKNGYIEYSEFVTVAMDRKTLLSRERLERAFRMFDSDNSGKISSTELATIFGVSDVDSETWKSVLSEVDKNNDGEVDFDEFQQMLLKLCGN
Assay: TgCDPK1 kinase assay, syntide-2 peptide-based ELISA
Binary label based on IC50 with cut-off 20 nM: below gives Fulfilled, not below gives Not fulfilled.

| Compound | Assayed System | Label Value |
| --- | --- | --- |
| CC(C)(C)n1nc(Cc2c[nH]c3ccccc23)c2c(N)ncnc21 [LJQ-138] | TgCDPK1 (Toxoplasma gondii, UniProt Q9BJF5) | Fulfilled |
| Nc1ncnc2c1c(Cc1c[nH]c3ccccc13)nn2CC1(C(F)(F)F)CC1 [WXT-2] | TgCDPK1 (Toxoplasma gondii, UniProt Q9BJF5) | Not fulfilled |
| CC(C)(C)n1nc(Sc2c[nH]c3ccccc23)c2c(N)ncnc21 [FUR6-159] | TgCDPK1 (Toxoplasma gondii, UniProt Q9BJF5) | Not fulfilled |
| Cc1cccc(Sc2nn(C(C)(C)C)c3ncnc(N)c23)c1 [FUR7-68] | TgCDPK1 (Toxoplasma gondii, UniProt Q9BJF5) | Not fulfilled |
| Nc1ncnc2c1c(Cc1c[nH]c3ccccc13)nn2CC1CCNCC1 [FUR6-95] | TgCDPK1 (Toxoplasma gondii, UniProt Q9BJF5) | Not fulfilled |

Q: For CC(C)(C)n1nc(Cc2coc3ccccc23)c2c(N)ncnc21 [LJQ-145] , is the recorded IC50 below the cut-off of 20 nM?
Ans: Not fulfilled

Q: Identify whether the compound CC(C)(C)n1nc(Cc2csc3ccccc23)c2c(N)ncnc21 [CZ43] records IC50 below 20 nM.
Ans: Fulfilled

* * *

Target: Src (Homo sapiens (Human), UniProt P12931)
Sequence (P12931 whole entry, looked up): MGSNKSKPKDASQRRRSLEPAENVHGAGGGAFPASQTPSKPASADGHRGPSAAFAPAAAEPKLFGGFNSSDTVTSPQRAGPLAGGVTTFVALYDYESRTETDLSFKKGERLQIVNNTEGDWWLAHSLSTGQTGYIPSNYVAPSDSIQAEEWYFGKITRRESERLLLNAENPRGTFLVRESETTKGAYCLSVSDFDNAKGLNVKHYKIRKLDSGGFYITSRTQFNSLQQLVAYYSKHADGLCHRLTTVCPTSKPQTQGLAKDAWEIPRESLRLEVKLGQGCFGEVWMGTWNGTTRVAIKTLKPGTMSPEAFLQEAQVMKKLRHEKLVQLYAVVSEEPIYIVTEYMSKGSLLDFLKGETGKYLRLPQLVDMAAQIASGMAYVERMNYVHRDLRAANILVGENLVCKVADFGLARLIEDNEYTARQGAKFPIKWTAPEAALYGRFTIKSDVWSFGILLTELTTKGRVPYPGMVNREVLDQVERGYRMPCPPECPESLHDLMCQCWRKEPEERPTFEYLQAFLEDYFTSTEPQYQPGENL
Test: Src kinase inhibition
Type: biochemical
Parameters: concentration or dose not given beside the values
Binning of Src % Inhibition into classes: low bracket = under 70%, middle bracket = from 70% up to 90%, high bracket = 90% and over

| Compound | Assayed System | Label Value |
| --- | --- | --- |
| Nc1ncnc2c1c(Cc1c[nH]c3ccccc13)nn2CC1CCNCC1 [FUR6-95] | Src (Homo sapiens (Human), UniProt P12931) | high bracket |
| Nc1ncnc2c1c(Oc1ccc(F)c(Cl)c1)nn2CC1CCNCC1 [GXJ261] | Src (Homo sapiens (Human), UniProt P12931) | middle bracket |
| CC(C)(C)n1nc(Cc2cccc(Cl)c2)c2c(N)ncnc21 [Compound 3CIB-PP1, reference compound] | Src (Homo sapiens (Human), UniProt P12931) | low bracket |
| CN1CCC(Cn2nc(Oc3cccc(Cl)c3)c3c(N)ncnc32)CC1 [FUR7-30] | Src (Homo sapiens (Human), UniProt P12931) | high bracket |

Q: Please report the category associated with Cc1cccc(Oc2nn(C(C)(C)C)c3ncnc(N)c23)c1 [GXJ176] , nothing else.
Ans: middle bracket

Q: For this compound, which bin applies? CC(C)(C)n1nc(Cc2coc3ccccc23)c2c(N)ncnc21 [LJQ-145]
Ans: low bracket

Q: Lab note: which band did CC(C)(C)n1nc(Sc2cccc(Cl)c2)c2c(N)ncnc21 [GXJ186] land in?
Ans: middle bracket

Q: Just checking, what class would you give Nc1ncnc2c1c(Nc1cccc(Cl)c1)nn2CC1CCNCC1 [GXJ276] here?
Ans: low bracket

Q: Input Cc1cccc(Sc2nn(C(C)(C)C)c3ncnc(N)c23)c1 [FUR7-68] ; output its category
Ans: low bracket

Q: Place this compound in its band: Nc1ncnc2c1c(Oc1cccc(Cl)c1)nn2Cc1ccncc1 [FUR6-6]
Ans: high bracket

Q: Which category fits this record: CC(C)(C)n1nc(Oc2cccc(C(F)(F)F)c2)c2c(N)ncnc21 [GXJ178]
Ans: middle bracket

Q: Dear colleague, I would appreciate it if you could identify the bin for CC(C)(C)n1nc(Cc2c[nH]c3ccccc23)c2c(N)ncnc21 [LJQ-138] and reply at your convenience.
Ans: middle bracket

Q: Could you place Nc1ncnc2c1c(Oc1cccc(Cl)c1)nn2CC1CCNC1 (centres unmarked) [FUR6-13] in its proper category? Many thanks.
Ans: high bracket

Q: In plain terms, what class is CC(C)(C)n1nc(Oc2cccc(Br)c2)c2c(N)ncnc21 [GXJ177] ?
Ans: middle bracket

Q: Please classify: Nc1ncnc2c1c(Sc1cccc(Cl)c1)nn2CC1CCNCC1(F)F (centres unmarked) [FUR 7-76]
Ans: middle bracket

Q: Could you tell me which band CC(C)(C)n1nc(Sc2c[nH]c3ccccc23)c2c(N)ncnc21 [FUR6-159] belongs to?
Ans: high bracket

* * *

Listing of recorded half-life by entry.
Experiment: Stability in rat liver microsomes
Format: in vitro ADME
Conditions: 1 mM NADPH, read-out: Microsome Half-Life
Return type: number; implicit unit min.

Study these solved cases before continuing.
| Smiles Str | Reported Property | Measurement Units | Data Value |
| --- | --- | --- | --- |
| CC(C)(C)n1nc(Cc2c[nH]c3ccccc23)c2c(N)ncnc21 | half-life | min | 2 |
| CC(C)(C)n1nc(Cc2coc3ccccc23)c2c(N)ncnc21 | half-life | min | 1.7 |
| Nc1ncnc2c1c(Sc1c[nH]c3ccccc13)nn2CC1CCNCC1 | half-life | min | 12 |
| Cc1cccc(Sc2nn(C(C)(C)C)c3ncnc(N)c23)c1 | half-life | min | 1 |
| Nc1ncnc2c1c(Cc1c[nH]c3ccccc13)nn2CC1(C(F)(F)F)CC1 | half-life | min | 4.7 |
| CC(C)(C)n1nc(Cc2csc3ccccc23)c2c(N)ncnc21 | half-life | min | 2.5 |

We now examine a further compound.
Q: Could you tell me which half-life is on file for `CC(C)(C)n1nc(Sc2c[nH]c3ccccc23)c2c(N)ncnc21` ?
Ans: 2.6

* * *

Molecular target: Src (Homo sapiens (Human), UniProt P12931)
Assay: Src kinase inhibition
Type: biochemical
Design: concentration or dose not given beside the values
Reported Property: Src % Inhibition (%)
Field: numeric (%). Do not append units.

Example cases with answers are listed next.
| Molecule | Data Value |
| --- | --- |
| Cc1cccc(Sc2nn(CC3CCNCC3)c3ncnc(N)c23)c1 [FUR7-77] | 80.21 |
| Nc1ncnc2c1c(Cc1cc(F)cc(F)c1)nn2CC1CCNCC1 [MLC468] | 94.97 |
| COc1cccc(Oc2nn(C(C)(C)C)c3ncnc(N)c23)c1 [GXJ230] | 77.53 |
| Nc1ncnc2c1c(Oc1cccc(Cl)c1)nn2CC1CCNC(=O)C1 (stereo not shown) [FUR7-36] | 96.13 |
| Nc1ncnc2c1c(Cc1cccc(Cl)c1)nn2CC1CCNCC1 [FUR6-157] | 87.11 |
| CC(C)(C)n1nc(Oc2cccc(Cl)c2)c2c(N)ncnc21 [GXJ184] | 79.94 |
| Nc1ncnc2c1c(Oc1cccc(Cl)c1)nn2CC1CCOCC1 [FUR7-89] | 77.33 |
| CC(C)(C)n1nc(Cc2csc3ccccc23)c2c(N)ncnc21 [CZ43] | 28.21 |
| Nc1ncnc2c1c(Oc1cccc(Cl)c1)nn2CC1CCCNC1 (stereo not shown) [FUR6-11] | 90.05 |

Q: Return reported Src % Inhibition; argument: CC(C)(C)n1nc(Nc2cccc(Cl)c2)c2c(N)ncnc21 [LZH118]
Ans: 21.86

* * *

Here the recorded EC50 is given for each entry.
Test system: T. gondii type I RH strain, 2F clone
Assay: Inhibition of parasite growth in vitro in HFF monolayers (beta-Gal readout)
Assay type: cell-based
Conditions: Toxoplasma gondii, 72 h; read-out: Parasite Growth EC50
Answer format: numeric, nM implied, no suffix.

| Compound | Assayed System | Measurement Units | EC50 |
| --- | --- | --- | --- |
| CC(C)(C)n1nc(Cc2c[nH]c3ccccc23)c2c(N)ncnc21 [LJQ-138] | T. gondii type I RH strain, 2F clone | nM | 177 |
| CC(C)(C)n1nc(Cc2csc3ccccc23)c2c(N)ncnc21 [CZ43] | T. gondii type I RH strain, 2F clone | nM | 135 |
| CC(C)(C)n1nc(Cc2coc3ccccc23)c2c(N)ncnc21 [LJQ-145] | T. gondii type I RH strain, 2F clone | nM | 2030 |

Please turn your attention to the following entry.
Q: GET /values?readout=EC50&item= Cc1cccc(Sc2nn(C(C)(C)C)c3ncnc(N)c23)c1 [FUR7-68]
Ans: 376
